Assay system: HPV33 E6 phospho-PBM peptide p33E6 (human papillomavirus type 33)
Test description: FP
Kd vs 4 µM: less than gives T; not less than gives F.

binder="full-length human 14-3-3ε fused to the C terminus of MBP (natural protein) MDDREDLVYQAKLAEQAERYDEMVESMKKVAGMDVELTVEERNLLSVAYKNVIGARRASWRIISSIEQKEENKGGEDKLKMIREYRQMVETELKLICCDILDVLDKHLIPAANTGESKVFYYKMKGDYHRYLAEFATGNDRKEAAENSLVAYKAASDIAMTELPPTHPIRLGLALNFSVFYYEILNSPDRACRLAKAAFDDAIAELDTLSEESYKDSTLIMQLLRDNLTLWTSDMQGDGEEQNKEALQDVEDENQ" class_name=F
binder="full-length human 14-3-3γ fused to the C terminus of MBP (natural protein) MVDREQLVQKARLAEQAERYDDMAAAMKNVTELNEPLSNEERNLLSVAYKNVVGARRSSWRVISSIEQKTSADGNEKKIEMVRAYREKIEKELEAVCQDVLSLLDNYLIKNCSETQYESKVFYLKMKGDYYRYLAEVATGEKRATVVESSEKAYSEAHEISKEHMQPTHPIRLGLALNYSVFYYEIQNAPEQACHLAKTAFDDAIAELDTLNEDSYKDSTLIMQLLRDNLTLWTSDQQDDDGGEGNN" class_name=T
binder="full-length human 14-3-3σ fused to the C terminus of MBP (natural protein) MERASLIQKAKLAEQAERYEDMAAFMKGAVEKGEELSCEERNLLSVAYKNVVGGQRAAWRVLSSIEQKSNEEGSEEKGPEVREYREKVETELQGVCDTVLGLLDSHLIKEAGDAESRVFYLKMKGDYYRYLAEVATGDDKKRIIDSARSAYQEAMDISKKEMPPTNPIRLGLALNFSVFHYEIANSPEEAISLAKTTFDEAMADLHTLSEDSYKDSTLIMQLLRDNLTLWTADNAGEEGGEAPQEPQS" class_name=F
binder="full-length human 14-3-3τ fused to the C terminus of MBP (natural protein) MEKTELIQKAKLAEQAERYDDMATCMKAVTEQGAELSNEERNLLSVAYKNVVGGRRSAWRVISSIEQKTDTSDKKLQLIKDYREKVESELRSICTTVLELLDKYLIANATNPESKVFYLKMKGDYFRYLAEVACGDDRKQTIDNSQGAYQEAFDISKKEMQPTHPIRLGLALNFSVFYYEILNNPELACTLAKTAFDEAIAELDTLNEDSYKDSTLIMQLLRDNLTLWTSDSAGEECDAAEGAEN" class_name=T
binder="full-length human 14-3-3ζ fused to the C terminus of MBP (natural protein) MDKNELVQKAKLAEQAERYDDMAACMKSVTEQGAELSNEERNLLSVAYKNVVGARRSSWRVVSSIEQKTEGAEKKQQMAREYREKIETELRDICNDVLSLLEKFLIPNASQAESKVFYLKMKGDYYRYLAEVAAGDDKKGIVDQSQQAYQEAFEISKKEMQPTHPIRLGLALNFSVFYYEILNSPEKACSLAKTAFDEAIAELDTLSEESYKDSTLIMQLLRDNLTLWTSDTQGDEAEAGEGGEN" class_name=T

Cited source: paper PMC7961048
